- System: skin irritation caused by Balsam of Peru
- experiment_notes: Balsam of Peru skin irritation test on ventral forearms of panelists (skin redness, Minolta Chromameter)
- Assay type: in vivo, human
- condition: Example 2; topical, 1% concentration, before Balsam of Peru
- Procedure: Eight female volunteer panelists between the ages of 21 and 55 having a history of skin sensitivity to Balsam of Peru are chosen for a study. […] The panelists have a history of skin reactivity to Balsam of Peru which manifests itself in the form of an immediate urticaria reaction. […] Skin redness is measured with the Minolta Chromameter. Skin irritation is measured in terms of an increase in skin redness measured using a Minolta Chromameter and compared with a negative and a positive control. […]
We use 60% as the dividing line for Percent Reduction in the onset of irritation: on or above the line is t, below is f.

Record excerpt, results attached:
{"compound": "CCCCOc1cc(CC2CNC(=O)N2)ccc1OC (stereo not drawn) [Ro-12-1724]", "target_desc": "skin irritation caused by Balsam of Peru", "category": "f"}
{"compound": "CC(C)Cn1c(=O)n(C)c(=O)c2[nH]cnc21 [IBMX, 3-isobutyl 1-methyl xanthine]", "target_desc": "skin irritation caused by Balsam of Peru", "category": "t"}
{"compound": "CC(=O)CCCCn1c(=O)c2c(ncn2C)n(C)c1=O [Pentoxifylline, pentoxifylline]", "target_desc": "skin irritation caused by Balsam of Peru", "category": "f"}

Ask | # bool: Percent Reduction in the onset of irritation of O=c1[nH]cnc2c1ncn2[C@@H]1O[C@@H]2COP(=O)(O)O[C@H]2[C@H]1O [cIMP, cyclic IMP] >= 60%
Reply | f

Ask | # bool: Percent Reduction in the onset of irritation of COc1ccc(C2CNC(=O)C2)cc1OC1CCCC1 (stereo not drawn) [Rolipram] >= 60%
Reply | t

Ask | # bool: Percent Reduction in the onset of irritation of Cn1c(=O)c2c(ncn2C)n(C)c1=O [Caffeine, caffeine] >= 60%
Reply | f
